experiment: in vivo; settings: Sprague-Dawley, rat, po, 10 mg/kg

smilesData	scaleUnit	MRT inf at 24 h
CCS(=O)(=O)n1cc(-c2nc(Nc3ccc4c(ccn4CCN(C)C)c3)ncc2C(F)(F)F)c2ccccc21	h	9.62

###

assay: in vivo; details: Sprague-Dawley, rat, iv, 1 mg/kg

smilesData	scaleUnit	clearance at 24 h
CCS(=O)(=O)n1cc(-c2nc(Nc3ccc4c(ccn4CCN(C)C)c3)ncc2C(F)(F)F)c2ccccc21	mL/min/kg	70.2

###

experiment: in vivo; conditions: Sprague-Dawley, rat, iv, 1 mg/kg

smilesData	scaleUnit	Tmax at 24 h
CCS(=O)(=O)n1cc(-c2nc(Nc3ccc4c(ccn4CCN(C)C)c3)ncc2C(F)(F)F)c2ccccc21	min	4.8
